Hey, just so you know, these numbers are from patent US20070219210A1.

Target: Cyclooxygenase-1 (COX-1) (Ovis aries)
Construct: purchased Cayman Chemical Company 560101
Sequence (P05979 25-600): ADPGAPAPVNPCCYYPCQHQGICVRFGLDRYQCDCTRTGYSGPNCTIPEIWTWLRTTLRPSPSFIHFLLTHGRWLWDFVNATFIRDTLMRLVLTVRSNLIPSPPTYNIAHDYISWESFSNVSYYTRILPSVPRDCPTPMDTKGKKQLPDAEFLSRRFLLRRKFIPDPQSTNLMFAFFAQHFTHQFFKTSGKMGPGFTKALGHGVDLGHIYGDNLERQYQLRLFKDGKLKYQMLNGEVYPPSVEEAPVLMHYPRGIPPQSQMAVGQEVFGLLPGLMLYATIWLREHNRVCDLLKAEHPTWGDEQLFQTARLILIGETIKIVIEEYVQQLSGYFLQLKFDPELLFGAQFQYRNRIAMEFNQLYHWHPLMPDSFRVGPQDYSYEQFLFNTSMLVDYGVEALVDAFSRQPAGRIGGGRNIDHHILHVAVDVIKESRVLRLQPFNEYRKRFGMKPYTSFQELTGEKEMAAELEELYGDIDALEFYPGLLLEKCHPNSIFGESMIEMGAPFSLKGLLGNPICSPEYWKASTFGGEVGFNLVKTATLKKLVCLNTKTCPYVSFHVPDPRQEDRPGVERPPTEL
Experiment: COX Inhibitor Screening Assay Kit (Cayman), PGF2α by ELISA, COX-1
Assay type: biochemical
Conditions: compound at 50 μm; relative to PGF2α produced without compound (100%)
Method: Inhibitory activity against COX-1 and COX-2 of the compounds produced in the Examples was measured by using COX Inhibitor Screening Assay Kit (Catalog Nos. 560101 and 560121) purchased from Cayman Chemical Company. […] A calibration curve was obtained by using the PG screening EIA standard, and the amount of PGF2α produced was determined from the absorption. Inhibitory rate at 50 μM of the compound of the Examples against COX-1 or COX-2 was calculated. […]
Would you mind telling me the reported Inhibitory effect against COX-1 at 50 μm (% inhibition) of each entry?
Quick reminder: number only, in % inhibition, skip the unit.

Provide measured Inhibitory effect against COX-1 at 50 μm (% inhibition) value, entry: `CC(C)(C)NC(=O)c1cc(-c2ccc(CN)cn2)n(-c2ccccc2)n1`
38.8

Provide measured Inhibitory effect against COX-1 at 50 μm (% inhibition) value, entry: `CC(C)(C)NC(=O)c1cc(-c2ccc(CO)cn2)n(-c2cccnc2)n1`
5.5

Provide measured Inhibitory effect against COX-1 at 50 μm (% inhibition) value, entry: `COc1ccc(-n2nc(C(=O)NC3CCCC3)cc2-c2ccccn2)nn1`
−1.2

Provide measured Inhibitory effect against COX-1 at 50 μm (% inhibition) value, entry: `COc1ccc(-n2nc(C(=O)NC3(C(N)=O)CCCC3)cc2-c2ccccn2)cn1`
3.6

Provide measured Inhibitory effect against COX-1 at 50 μm (% inhibition) value, entry: `COC(=O)NCc1ccc(-c2cc(C(=O)NC(C)(C)C)nn2-c2cccnc2)nc1`
−25.8

Provide measured Inhibitory effect against COX-1 at 50 μm (% inhibition) value, entry: `CC(C)(C)NC(=O)c1cc(-c2ccc(CNS(C)(=O)=O)cn2)n(-c2cccnc2)n1`
−5.1

Provide measured Inhibitory effect against COX-1 at 50 μm (% inhibition) value, entry: `Cc1ccc(-c2cc(C(=O)NC(C)(C)CO)nn2-c2cccnc2)nc1`
−8.7

Provide measured Inhibitory effect against COX-1 at 50 μm (% inhibition) value, entry: `Cc1ccc(-n2nc(C(=O)NC(C)(C)C)cc2-c2ccccn2)cn1`
−3.3

Provide measured Inhibitory effect against COX-1 at 50 μm (% inhibition) value, entry: `CC(C)(C)NC(=O)c1cc(-c2cnc(N)cn2)n(-c2cccnc2)n1`
−9.1

Provide measured Inhibitory effect against COX-1 at 50 μm (% inhibition) value, entry: `CC(C)(C)NC(=O)c1cc(-c2ccc(N)cn2)n(-c2cccnc2)n1`
7.9

Provide measured Inhibitory effect against COX-1 at 50 μm (% inhibition) value, entry: `Cc1cnc(-c2cc(C(=O)NC(C)(C)C)nn2-c2cccnc2)cn1`
11.6

Provide measured Inhibitory effect against COX-1 at 50 μm (% inhibition) value, entry: `CC(C)(CF)NC(=O)c1cc(-c2ccc(N)cn2)n(-c2cccnc2)n1`
−20.4

Provide measured Inhibitory effect against COX-1 at 50 μm (% inhibition) value, entry: `COc1ccc(-c2cc(C(=O)NC(C)(C)C)nn2-c2cccnc2)nc1`
4.7
